# Read-out: Tissue plasminogen activator (tPA), PLAT (gene 5327)
# test.details: BSK_BE3C_tPA: BioMAP Diversity Plus: BE3C Assay for Tissue plasminogen activator (tPA) Biomarker Activity (AID 2283041)
# experimental.context: primary human bronchial epithelial cells; actives raise or lower the signal
# Protocol: BSK_BE3C is a cell-based, multiplexed-readout assay that uses bronchial epithelial cell, a human lung primary cell, with measurements taken at 24 hours after chemical dosing in a 96-well plate.BSK_BE3C_tPA is an assay component measured in the BSK_BE3C assay. It measures tPA antibody related to regulation of gene expression using ELISA technology.Data from the assay component BSK_BE3C_tPA was analyzed into 1 assay endpoint. […]
Calls of active or inactive are those of the source. How the source made its calls: active means hit-call score of the fitted dose curve at least 0.9, where 1 is the maximum; inactive means score below 0.9.
// one of 1 = active, -1 = inactive, no free text

- compound: "CCNc1nc(Cl)nc(NC(C)(C)C#N)n1"
  qualitative.label: -1

// query Dear all, I need the recorded test outcome for CC(C)=CC1C(C(=O)OCN2C(=O)C3=C(CCCC3)C2=O)C1(C)C (stereo unspecified) , thank you.
// result -1

// query Please let me know the test result on file for COP(=O)(OC)C(O)C(Cl)(Cl)Cl (stereo unspecified) .
// result -1

// query Entry CCCSP(=O)(OCC)Oc1ccc(Br)cc1Cl (stereo unspecified) : call = ?
// result 1

// query Just curious, what result did CC(C)N(C(=O)SCC(Cl)=C(Cl)Cl)C(C)C get here?
// result -1

// query Which outcome did this test record for the compound CCc1cccc(CC)c1N(COC)C(=O)CCl ?
// result -1
